Measured values drawn from ChEMBL document CHEMBL1123673 for this set.

Test: Lethal dose required to kill 90% of the Escherichia coli K12 (ATCC 25868) cell population
Type: ADME
MEASURED_PROPERTY: LD90 (µM)
Numbers only; they are read as µM.

MOLECULE: CNC1C(OC2OC(CO)C(N)C(O)C2O)OC2CC(N)C(OC3C(N)CC(NC(=O)C(O)CCN)C(O)C3O)OC2C1O (centres undefined)
LD90, µM: 1.2
//
MOLECULE: NC[C@H]1O[C@H](O[C@H]2[C@H](O)[C@@H](O[C@H]3O[C@H](CO)[C@@H](O)[C@H](N)[C@H]3O)[C@H](N)C[C@@H]2N)[C@H](O)[C@@H](O)[C@@H]1O
LD90, µM: 0.85
//
MOLECULE: NC[C@@H]1O[C@H](O[C@H]2[C@@H](O)[C@H](O[C@@H]3[C@@H](O)[C@H](N)C[C@H](N)[C@H]3O[C@H]3O[C@H](CN)[C@@H](O)[C@H](O)[C@H]3N)O[C@@H]2CO)[C@H](N)[C@@H](O)[C@@H]1O
LD90, µM: 0.46
//
MOLECULE: NCC1OC(OC2C(N)CC(NC(=O)C3(O)CCNC3)C(OC3OC(CO)C(O)C(N)C3O)C2O)C(N)CC1O (centres undefined)
LD90, µM: 0.31
//
MOLECULE: CN[C@@H]1[C@@H](O)[C@@H](O[C@@H]2[C@@H](O)[C@H](O[C@H]3O[C@H]([C@@H](C)NC)CC[C@H]3N)[C@@H](N)C[C@H]2N)OC[C@]1(C)O
LD90, µM: 0.25

[ask] Note down LD90 recorded for NCC1OC(OC2C(N)CC(NC(=O)C3(O)CNC3)C(OC3OC(CO)C(O)C(N)C3O)C2O)C(N)CC1O (centres undefined)
[reply] 0.63

[ask] Input `NC[C@@H]1O[C@H](O[C@H]2[C@@H](O)[C@H](O[C@@H]3[C@@H](O)[C@H](N)C[C@H](N)[C@H]3O[C@H]3O[C@H](CO)[C@@H](O)[C@H](O)[C@H]3N)O[C@@H]2CO)[C@H](N)[C@@H](O)[C@@H]1O` , output reported LD90.
[reply] 0.78

[ask] Give a short answer stating reported LD90 for `NC[C@H]1O[C@H](O[C@@H]2[C@@H](O)[C@H](O[C@@H]3[C@H](O)[C@H](N)C[C@@H](N)[C@H]3O[C@H]3O[C@@H](CO)[C@@H](O)C[C@@H]3N)O[C@@H]2CO)[C@@H](N)[C@@H](O[C@H]2O[C@H](CO)[C@@H](O)[C@H](O)[C@@H]2O)[C@@H]1O` .
[reply] 0.88

[ask] Complete the entry with LD90 for CNC1C(O)C(OC2C(N)CC(N)C(OC3OC(C(C)N)CCC3N)C2O)OCC1(C)O (centres undefined)
[reply] 0.14

====

Experiment: Percent killing of the total Escherichia coli K12 (ATCC 25868) cells at the C50 concentration was determined.
Format: ADME
# Kill at C50 values compiled below
Numbers only; they are read as %.

Here are 2 compounds together with their reported answers.
COMPOUND: NC[C@H]1O[C@H](O[C@H]2[C@H](O)[C@@H](O[C@H]3O[C@H](CO)[C@@H](O)[C@H](N)[C@H]3O)[C@H](N)C[C@@H]2N)[C@H](O)[C@@H](O)[C@@H]1O
Kill at C50, %: 93
--
COMPOUND: CNC1C(O)C(OC2C(N)CC(N)C(OC3OC(C(C)N)CCC3N)C2O)OCC1(C)O (centres undefined)
Kill at C50, %: 98

[ask] State its Kill at C50 for this compound: CNC1C(OC2OC(CO)C(N)C(O)C2O)OC2CC(N)C(OC3C(N)CC(NC(=O)CN)C(O)C3O)OC2C1O (centres undefined)
[reply] 94

[ask] Return Kill at C50 for the following compound: CNC1C(OC2OC(CO)C(N)C(O)C2O)OC2CC(NC(=O)C(O)CCN)C(OC3C(N)CC(N)C(O)C3O)OC2C1O (centres undefined)
[reply] 93

[ask] Give Kill at C50 for the following compound: `CCN[C@@H]1C[C@H](N)[C@@H](O[C@H]2OC(CN)=CC[C@H]2N)[C@H](O)[C@H]1O[C@H]1OC[C@](C)(O)[C@H](NC)[C@H]1O`
[reply] 86

====

Uptake at C50: recorded values
System: Escherichia coli
Experiment: Estimated rate of [3H]DHS uptake in Escherichia coli K12 (ATCC 25868)
Type: functional
Design: unit not given here
Response field accepts a number only; no unit should be typed.

MOLECULE: NC[C@H]1O[C@H](O[C@@H]2[C@@H](O)[C@H](O[C@@H]3[C@H](O)[C@H](N)C[C@@H](N)[C@H]3O[C@H]3O[C@@H](CO)[C@@H](O)C[C@@H]3N)O[C@@H]2CO)[C@@H](N)[C@@H](O[C@H]2O[C@H](CO)[C@@H](O)[C@H](O)[C@@H]2O)[C@@H]1O
MEASURED_PROPERTY: Uptake at C50
NUMERIC_READOUT: 4.4

[ask] Tell us which Uptake at C50 value is on record for CCN[C@@H]1C[C@H](N)[C@@H](O[C@H]2OC(CN)=CC[C@H]2N)[C@H](O)[C@H]1O[C@H]1OC[C@](C)(O)[C@H](NC)[C@H]1O [NETILMICIN]
[reply] 5.8

[ask] Please indicate Uptake at C50 recorded for CNC1C(OC2OC(CO)C(N)C(O)C2O)OC2CC(N)C(OC3C(N)CC(NC(=O)CN)C(O)C3O)OC2C1O (stereo not drawn)
[reply] 2.1

====

Tested on: Escherichia coli
Assay: Estimated rate of [3H]DHS uptake in Escherichia coli K12 (ATCC 25868)
Assay type: functional
Parameters: unit not given here
MEASURED_PROPERTY: Uptake at C50
Just the number, please, no unit attached.

// solved cases for Uptake at C50 follow
COMPOUND: NCC1OC(OC2C(N)CC(NC(=O)C3(O)CCNC3)C(OC3OC(CO)C(O)C(N)C3O)C2O)C(N)CC1O (stereo unspecified)
Uptake at C50: 4.4

COMPOUND: CNC1C(OC2OC(CO)C(N)C(O)C2O)OC2CC(NC(=O)CN)C(OC3C(N)CC(N)C(O)C3O)OC2C1O (stereo unspecified)
Uptake at C50: 3.3

COMPOUND: NC[C@@H]1O[C@H](O[C@H]2[C@@H](O)[C@H](O[C@@H]3[C@@H](O)[C@H](N)C[C@H](N)[C@H]3O[C@H]3O[C@H](CO)[C@@H](O)C[C@H]3N)O[C@@H]2CO)[C@H](N)[C@@H](O)[C@@H]1O[C@H]1O[C@H](CO)[C@@H](O)[C@H](O)[C@@H]1O
Uptake at C50: 5.5

[ask] Note Uptake at C50 for the compound shown: `NC[C@@H]1O[C@H](O[C@H]2[C@@H](O)[C@H](O[C@@H]3[C@@H](O)[C@H](N)C[C@H](N)[C@H]3O[C@H]3O[C@H](CO)[C@@H](O)[C@H](O)[C@H]3N)O[C@@H]2CO)[C@H](N)[C@@H](O)[C@@H]1O`
[reply] 3.9

[ask] State its Uptake at C50 for this compound: COC1C(O)C(N)C(OC2OC([C@H](C)N)CCC2N)C(O)C1N(C)C(=O)CN (stereo partly specified)
[reply] 5.6

[ask] Provide one value: measured Uptake at C50 of `CN[C@@H]1[C@@H](O)[C@@H](O[C@@H]2[C@@H](O)[C@H](O[C@H]3OC(CN)=CC[C@H]3N)[C@@H](N)C[C@H]2N)OC[C@]1(C)O`
[reply] 7

====

Tested on: Escherichia coli
Assay: Estimated rate of [3H]DHS uptake in Escherichia coli K12 (ATCC 25868)
Format: functional
Design: unit not given here
MEASURED_PROPERTY: Uptake at C50
Please respond with just the number, no unit label.

COMPOUND: NCC1CCC(N)C(OC2C(N)CC(N)C(OC3OC(CO)C(O)C(N)C3O)C2O)O1 (stereo unspecified)
ASSAY_SYSTEM: Escherichia coli
Uptake at C50: 8.1

COMPOUND: CNC1C(OC2OC(CO)C(N)C(O)C2O)OC2CC(N)C(OC3C(N)CC(NC(=O)C(O)CCN)C(O)C3O)OC2C1O (stereo unspecified)
ASSAY_SYSTEM: Escherichia coli
Uptake at C50: 2.4

[ask] For the compound CN1C(NC2OC(CO)C(OC(N)=O)C(O)C2NC(=O)CC(N)CCCN)=N[C@@H]2[C@H](O)CNC(=O)[C@H]21 (stereo partly specified) , give its measured Uptake at C50 value.
[reply] 4.1

[ask] Please give the documented Uptake at C50 of `NC[C@H]1O[C@H](O[C@H]2[C@H](O)[C@@H](O[C@H]3O[C@H](CO)[C@@H](O)[C@H](N)[C@H]3O)[C@H](N)C[C@@H]2N)[C@H](N)C[C@@H]1O`
[reply] 8.3

[ask] Consider the compound CNC1C(OC2OC(CO)C(N)C(O)C2O)OC2CC(NC(=O)C(O)CCN)C(OC3C(N)CC(N)C(O)C3O)OC2C1O (stereo unspecified) . State its measured Uptake at C50.
[reply] 2.6

[ask] Supply recorded Uptake at C50 for `NC[C@@H]1O[C@H](O[C@H]2[C@@H](O)[C@H](O[C@@H]3[C@@H](O)[C@H](N)C[C@H](N)[C@H]3O[C@H]3O[C@H](CN)[C@@H](O)[C@H](O)[C@H]3N)O[C@@H]2CO)[C@H](N)[C@@H](O)[C@@H]1O` here.
[reply] 1.6
